Biological target: RAC-alpha serine/threonine-protein kinase (Homo sapiens) (UniProt P31749)
Sequence (P31749 whole entry): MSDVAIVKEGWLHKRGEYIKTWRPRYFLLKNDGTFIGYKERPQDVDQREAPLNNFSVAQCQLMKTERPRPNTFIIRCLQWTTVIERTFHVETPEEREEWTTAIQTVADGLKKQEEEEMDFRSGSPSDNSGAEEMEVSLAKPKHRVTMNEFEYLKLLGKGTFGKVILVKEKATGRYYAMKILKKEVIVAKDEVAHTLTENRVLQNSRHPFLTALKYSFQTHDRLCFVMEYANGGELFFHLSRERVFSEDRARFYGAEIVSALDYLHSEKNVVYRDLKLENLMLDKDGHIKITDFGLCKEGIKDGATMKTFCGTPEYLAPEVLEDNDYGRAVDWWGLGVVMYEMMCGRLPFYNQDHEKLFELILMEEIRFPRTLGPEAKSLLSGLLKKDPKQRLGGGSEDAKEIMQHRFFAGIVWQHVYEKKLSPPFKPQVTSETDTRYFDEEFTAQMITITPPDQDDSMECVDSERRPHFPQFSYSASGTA
Experiment: Inhibition of AKT1 at 10 uM after 60 mins by TR-FRET assay
quantity-name: inhibition (%)

Known inhibition results, listed for orientation:
- compound: "O=c1n(Cc2ccncc2)nc(-c2ccnc(NC3CCCCC3)c2)n1-c1ccc2ccccc2c1"
  reported-value: -2
- compound: "O=c1n(C2CCOCC2)nc(-c2ccnc(NC3CCCCC3)c2)n1-c1ccc2ccccc2c1"
  reported-value: 0
- compound: "O=c1n(Cc2ccccn2)nc(-c2ccnc(NC3CCOCC3)c2)n1-c1ccc2ccccc2c1"
  reported-value: -5
- compound: "O=c1[nH]nc(-c2ccnc(NC3CCCOC3)c2)n1-c1ccc2ccccc2c1 (stereo unspecified)"
  reported-value: 0

P: O=c1[nH]nc(-c2ccnc(NC3CCOCC3)c2)n1-c1ccc2ccccc2c1
Q: O=c1[nH]nc(-c2ccnc(NC3CCCCC3)c2)n1-c1ccc2ccccc2c1
Between these two entries, P and Q , state which has the higher inhibition. Please reply using the label of the selected record.
P

---

Target: Protein kinase C beta type (Homo sapiens) (UniProt P05771)
Sequence (P05771 2-671 limits assumed): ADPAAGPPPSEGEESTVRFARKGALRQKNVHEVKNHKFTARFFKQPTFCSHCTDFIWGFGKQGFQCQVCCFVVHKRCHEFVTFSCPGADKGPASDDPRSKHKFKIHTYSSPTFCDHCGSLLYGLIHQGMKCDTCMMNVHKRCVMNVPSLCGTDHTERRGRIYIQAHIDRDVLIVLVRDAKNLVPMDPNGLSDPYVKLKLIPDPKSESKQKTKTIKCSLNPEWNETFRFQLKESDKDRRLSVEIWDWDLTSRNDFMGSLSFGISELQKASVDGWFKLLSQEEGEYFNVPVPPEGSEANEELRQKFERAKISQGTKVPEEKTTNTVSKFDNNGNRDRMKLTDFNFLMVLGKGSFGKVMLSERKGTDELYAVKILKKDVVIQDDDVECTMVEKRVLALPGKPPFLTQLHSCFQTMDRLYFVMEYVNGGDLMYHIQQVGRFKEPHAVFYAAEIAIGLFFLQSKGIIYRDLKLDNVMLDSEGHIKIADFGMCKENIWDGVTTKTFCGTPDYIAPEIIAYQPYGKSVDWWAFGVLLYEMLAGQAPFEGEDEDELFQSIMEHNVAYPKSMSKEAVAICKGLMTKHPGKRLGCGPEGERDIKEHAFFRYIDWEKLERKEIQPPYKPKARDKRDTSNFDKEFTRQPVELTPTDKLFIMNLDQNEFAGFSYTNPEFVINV
Assay: Inhibition of PRKCB1 at 10 uM after 60 mins by TR-FRET assay
quantity-name: inhibition (%)

- compound: "O=c1n(C2CCOCC2)nc(-c2ccnc(NC3CCCCC3)c2)n1-c1ccc2ccccc2c1"
  quantity-name: "inhibition"
  reported-value: 7
- compound: "O=c1[nH]nc(-c2ccnc(NC3CCOCC3)c2)n1-c1ccc2ccccc2c1"
  quantity-name: "inhibition"
  reported-value: 11

A: O=c1[nH]nc(-c2ccnc(NC3CCCCC3)c2)n1-c1ccc2ccccc2c1
B: O=c1n(Cc2ccncc2)nc(-c2ccnc(NC3CCCCC3)c2)n1-c1ccc2ccccc2c1
C: O=c1[nH]nc(-c2ccnc(NC3CCCOC3)c2)n1-c1ccc2ccccc2c1 (stereo unspecified)
D: O=c1n(Cc2ccccn2)nc(-c2ccnc(NC3CCOCC3)c2)n1-c1ccc2ccccc2c1
Sort by inhibition, descending. Order the labels as requested and list them.
B, C, D, A

---

Target: Leucine-rich repeat serine/threonine-protein kinase 2 (Homo sapiens)
Assay: Inhibition of LRRK2 at 10 uM after 60 mins by TR-FRET assay
quantity-name: inhibition (%)

Known inhibition results, listed for orientation:
- compound: "O=c1[nH]nc(-c2ccnc(NC3CCCCC3)c2)n1-c1ccc2ccccc2c1"
  quantity-name: "inhibition"
  reported-value: 11
- compound: "O=c1n(Cc2ccccn2)nc(-c2ccnc(NC3CCOCC3)c2)n1-c1ccc2ccccc2c1"
  quantity-name: "inhibition"
  reported-value: 7
- compound: "O=c1n(C2CCOCC2)nc(-c2ccnc(NC3CCCCC3)c2)n1-c1ccc2ccccc2c1"
  quantity-name: "inhibition"
  reported-value: 7
- compound: "O=c1[nH]nc(-c2ccnc(NC3CCCOC3)c2)n1-c1ccc2ccccc2c1 (stereo unspecified)"
  quantity-name: "inhibition"
  reported-value: 29

P: O=c1[nH]nc(-c2ccnc(NC3CCOCC3)c2)n1-c1ccc2ccccc2c1
Q: O=c1n(Cc2ccncc2)nc(-c2ccnc(NC3CCCCC3)c2)n1-c1ccc2ccccc2c1
Select the item whose inhibition value is smaller, choosing between P and Q . Please reply using the label of the selected record.
Q

---

Target: Serine/threonine-protein kinase PLK2 (Homo sapiens)
Test: Inhibition of PLK2 at 10 uM after 60 mins by TR-FRET assay
quantity-name: inhibition (%)

Known inhibition results, listed for orientation:
- compound: "O=c1n(C2CCOCC2)nc(-c2ccnc(NC3CCCCC3)c2)n1-c1ccc2ccccc2c1"
  inhibition / %: 26
- compound: "O=c1n(Cc2ccccn2)nc(-c2ccnc(NC3CCOCC3)c2)n1-c1ccc2ccccc2c1"
  inhibition / %: 5

I: O=c1[nH]nc(-c2ccnc(NC3CCCCC3)c2)n1-c1ccc2ccccc2c1
II: O=c1[nH]nc(-c2ccnc(NC3CCOCC3)c2)n1-c1ccc2ccccc2c1
Select the item whose inhibition value is smaller, choosing between I and II . Please reply using the label of the selected record.
I

P: O=c1[nH]nc(-c2ccnc(NC3CCCOC3)c2)n1-c1ccc2ccccc2c1 (stereo unspecified)
Q: O=c1n(Cc2ccncc2)nc(-c2ccnc(NC3CCCCC3)c2)n1-c1ccc2ccccc2c1
Select the item whose inhibition value is smaller, choosing between P and Q . Please reply using the label of the selected record.
Q
